- method.summary: biolocalization of the radionuclide in rats (tissue distribution after tail vein injection)
- Format: in vivo, male Sprague Dawley rats
- assay.context: Yb-175; rats; two hour; ratio of percent dose per gram; average of 5 rats
Bone/Muscle values for the compounds below.
value.type: Bone/Muscle

1) O=P(O)(O)CN(CCN(CP(=O)(O)O)CP(=O)(O)O)CP(=O)(O)O.[175Yb+3] = 619
2) O=P(O)(O)CN(CCO)CCN(CP(=O)(O)O)CP(=O)(O)O.[175Yb+3] = 572
3) O=P(O)(O)CN(CCN(CP(=O)(O)O)CP(=O)(O)O)CCN(CP(=O)(O)O)CP(=O)(O)O.[175Yb+3] = 366
4) O=P(O)(O)CN(CP(=O)(O)O)CP(=O)(O)O.[175Yb+3] = 876

----------
- method.summary: biolocalization of the radionuclide in rats (tissue distribution after tail vein injection)
- Type: in vivo, male Sprague Dawley rats
- assay.context: Yb-175; rats; two hour; ratio of percent dose per gram; average of 5 rats
value.type: Bone/Blood

1. O=P(O)(O)CN(CCN(CP(=O)(O)O)CP(=O)(O)O)CCN(CP(=O)(O)O)CP(=O)(O)O.[175Yb+3] [Example 10] = 179
2. O=P(O)(O)CN(CCN(CP(=O)(O)O)CP(=O)(O)O)CP(=O)(O)O.[175Yb+3] [Example 9] = 562
3. O=P(O)(O)CN(CCO)CCN(CP(=O)(O)O)CP(=O)(O)O.[175Yb+3] [Example 11] = 190
4. O=P(O)(O)CN(CP(=O)(O)O)CP(=O)(O)O.[175Yb+3] [Example 13] = 256

----------
- method.summary: biolocalization of the radionuclide in rats (tissue distribution after tail vein injection)
- Type: in vivo, male Sprague Dawley rats
- assay.context: Ho-166; two hours; comparative; average of 2 rats (MDP, HEDP, PYP), 1 rat (IDP, HDP)
Entries and their measured % Dose In Blood follow.
value.type: % Dose In Blood (% Dose)

1) O=P(O)(O)NP(=O)(O)O.[166Ho+3] [Ho-166 IDP, reference compound] = 0.28
2) O=P(O)(O)OP(=O)(O)O.[166Ho+3] [Ho-166 PYP, reference compound] = 0.63
3) O=P(O)(O)CP(=O)(O)O.[166Ho+3] [Ho-166 MDP, reference compound] = 1.5
4) O=P(O)(O)C(O)P(=O)(O)O.[166Ho+3] [H0-166 HDP, reference compound] = 0.04
5) CC(O)(P(=O)(O)O)P(=O)(O)O.[166Ho+3] [Ho-166 HEDP, reference compound] = 10.1

----------
- method.summary: biolocalization of the radionuclide in rats (tissue distribution after tail vein injection)
- Type: in vivo, male Sprague Dawley rats
- assay.context: Yb-175; rats; two hour; average of 5 rats
Each entry below lists one item and its recorded % Dose in Liver value.
value.type: % Dose in Liver (% Dose)

1) O=P(O)(O)CN(CP(=O)(O)O)CP(=O)(O)O.[175Yb+3] = 0.236
2) O=P(O)(O)CN(CCN(CP(=O)(O)O)CP(=O)(O)O)CCN(CP(=O)(O)O)CP(=O)(O)O.[175Yb+3] = 0.112
3) O=P(O)(O)CN(CCO)CCN(CP(=O)(O)O)CP(=O)(O)O.[175Yb+3] = 0.214
4) O=P(O)(O)CN(CCN(CP(=O)(O)O)CP(=O)(O)O)CP(=O)(O)O.[175Yb+3] = 0.138

Reference source for all entries: patent US5300279A
